assay: NCI Yeast Anticancer Drug Screen. Data for the mec2-1 strain (AID 157); conditions: S. cerevisiae mec2-1 strain, at 50.0 µM, active compounds read high
About 79,000 compounds went through this panel and 15% of them were active in at least one assay; those are over-represented in the sample as a whole.
measure: growth inhibition (%)
Response body: numeric value in %, unit text excluded.

A selection of reference data follows.
NS(=O)(=O)c1ccc(NC(=O)CCl)cc1 | -6.8
CCCCCCc1c(C)nc(N)[nH]c1=O | -3.85
NC(=S)NNC(=S)NC(=O)c1ccco1 | 5.55
O=S(=O)(c1ccc(Cl)cc1)c1ccccc1C1=NCCN1 | -44.9
O=C(Oc1ccc2c(c1)CCN2C(=O)c1cc2c(cc1[N+](=O)[O-])OCO2)c1ccc2c(c1)OCO2 | 7.2
COc1cc2c(cc1OC)C(=O)N(c1ccc(OCCN3CCCC3)cc1)C2=O | -17.9
Cc1cc2c(c(S(=O)(=O)c3ccccc3[N+](=O)[O-])c1)NCCC2 | -36
Oc1ccc2ccccc2c1C=Nc1ccc(SSc2ccc(N=Cc3c(O)ccc4ccccc34)cc2)cc1 | -10.1

Provide one value: measured growth inhibition of `CCN(c1ccccc1)S(=O)(=O)c1cc(N)ccc1C`
-10.7

Provide one value: measured growth inhibition of `Cc1ccc2cc(N)ccc2c1`
8.05

Provide one value: measured growth inhibition of O=C1OC(=O)C2C3C=CC(C4C=C(C5CC5)C43)C12 (centres undefined)
-4.05

----------
Listing of recorded growth inhibition by entry.
test: NCI Yeast Anticancer Drug Screen. Data for the mec2-1 strain (AID 157); conditions: S. cerevisiae mec2-1 strain, at 50.0 µM, active compounds read high
About 79,000 compounds went through this panel and 15% of them were active in at least one assay; those are over-represented in the sample as a whole.
Response body: numeric value in %, unit text excluded.

A selection of reference data follows.
C[C@H](N)C(O)/C=C/c1ccccc1 (some centres not stated) | -9.05
NC(N)=NS(=O)(=O)c1ccc(Nc2c3ccccc3nc3c(C(=O)Nc4ccc(S(N)(=O)=O)cc4)ccc(Cl)c23)cc1 | -2.1
C=CCSc1nc2ccc(NCn3c(=S)sc4cc([N+](=O)[O-])ccc43)cc2s1 | 14.4
NC(=S)N/N=C/C1=C(Cl)c2ccccc2C1 | 6.5
c1ccc2c(c1)Cc1ccccc1-2 | -17.2
N#Cc1c(O)c(C=O)c(=O)n2c1[nH]c1ccccc12 | -45.5
CC(C)(C)OC(=O)N/N=C(/N)Cc1ccc(Cl)cc1 | 19.4
C=CN1C(=O)NC2(CCCCC2)C1=O | -40

Provide one value: measured growth inhibition of `COc1ccc2c(c1)c1cc(OC)ccc1n2CCCCOc1ccc(-c2c3ccccc3c(-c3ccc(OCCCCn4c5ccc(OC)cc5c5cc(OC)ccc54)cc3)c3ccccc23)cc1`
1.85

Provide one value: measured growth inhibition of `N#CNC(=O)c1ccc(Cl)cc1`
-12.5

Provide one value: measured growth inhibition of CC(=O)OCC1OC(Nc2[nH]c(=O)[nH]c(=O)c2N=O)C(OC(C)=O)C(OC(C)=O)C1OC(C)=O (configuration not stated)
3.75

Provide one value: measured growth inhibition of NC(=O)CC(N)C(=O)NC(Cc1ccccc1)C(=O)NC(Cc1ccccc1)NC(=O)C(Cc1c[nH]c2ccccc12)C(=O)O (configuration not stated)
8.05

Provide one value: measured growth inhibition of `CCOC(=O)/C(N=O)=C(/C)O`
5.9

Provide one value: measured growth inhibition of CCc1ccccc1NC(=O)C(=O)C(C#N)c1ccccc1Cl (configuration not stated)
-30.6

----------
assay: NCI Yeast Anticancer Drug Screen. Data for the mec2-1 strain (AID 157); details: S. cerevisiae mec2-1 strain, at 50.0 µM
About 79,000 compounds went through this panel and 15% of them were active in at least one assay; those are over-represented in the sample as a whole. Calls of active or inactive are those of the source. No stated cut-off is given here; in the data, active means growth inhibition above about 70%; inactive means the rest.
Response enum: active, inactive

A selection of reference data follows.
O=C(NN(Cn1c(=S)sc2ccccc21)Cn1c(=S)sc2ccccc21)c1ccccc1O | active
O=C1Cc2c([nH]c3ccccc23)-c2cc(Br)ccc2N1 | inactive
COc1nc2ccccc2nc1OC | inactive
CCCCC(CC)OC(=O)Cc1ccccc1 (stereo unspecified) | inactive
CCOc1ccc(N=Nc2ccc3oc(=O)c(/C(C)=N/NC(=O)CC(=O)Nc4cccc(OC)c4)cc3c2)cc1 | inactive
CCOC(=O)C(OC(C)=O)(C(=O)OCC)C(O)c1cccnc1 (stereo unspecified) | inactive

Any idea what this test logged for `CCOC(=O)C(=N\Nc1cc(C)cc(C)c1)/C(C)=N\NC(N)=S` ?
inactive

Any idea what this test logged for CCCCCCCCCCCCNCC(O)c1cc(-c2ccccc2)nc2c(Cl)cc(Cl)cc12 (stereo unspecified) ?
inactive

Any idea what this test logged for O=C(Nc1ccc(Br)cc1)C(=O)C(C(=O)c1ccc(Cl)c(Cl)c1)C1OC(=O)c2ccccc21 (stereo unspecified) ?
inactive

Any idea what this test logged for CC(C)=C1C(=O)C[C@@]2(C)C[C@H]3OC3(C)CC/C=C(/C)CCC12 (stereo partly specified) ?
inactive

Any idea what this test logged for `O=C(O)CCc1nc2ccccc2[nH]1` ?
inactive

----------
test: NCI Yeast Anticancer Drug Screen. Data for the sgs1 mgt1 strain (AID 161);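 note: 0% = growth of cultures given vehicle only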; conditions: S. cerevisiae sgs1 mgt1 strain, at 50.0 µM, active compounds read high
This is part of a sample that, as a whole, favours compounds with a hit. Of some 79,000 tested, about 15% had one in any assay.
measure: growth inhibition (%)
Response body: numeric value in %, unit text excluded.

A selection of reference data follows.
CC(C)C(C)(C)C(N)=O | -9.1
Cc1cc(Cl)ccc1NC(=O)CCCC(=O)C1CCC/C1=N\NC(=O)CC#N (centres undefined) | -7.25
COC(=O)C(O)c1ccc(C(C)C)cc1 (centres undefined) | -13.9
COc1ccc(C2c3cc4c(cc3OC3(N5CCCC5)CCCC23)OCO4)c(OC)c1 (centres undefined) | -1.5
Cc1cc(N=Nc2ccc(N=Nc3ccc(S(=O)(=O)O)cc3)cc2)cc(C(=O)O)c1O | -2.85

Provide one value: measured growth inhibition of O=C1OC2(c3ccc(O)cc3Oc3cc(O)ccc32)C2C3CCC(O3)C12 (centres undefined)
42.2

Provide one value: measured growth inhibition of CCC(=O)C(CCN(C)C)c1ccccc1 (centres undefined)
9.9

Provide one value: measured growth inhibition of CC1(C)C[C@@H]2C1CCC1(C)CC2(O)CC[C@H]1O (some centres undefined)
-24.8

Provide one value: measured growth inhibition of `CN(C)c1ccc(N2C(=S)SC(=Nc3ccccc3)C2=Nc2ccccc2)cc1`
-10.8

Provide one value: measured growth inhibition of `O=C1c2ccc([N+](=O)[O-])cc2C(=O)N1CC(F)(F)F`
10.6

Provide one value: measured growth inhibition of `O=C(COc1ccc(Cl)cc1)Nc1cccc([N+](=O)[O-])c1`
2.45

Provide one value: measured growth inhibition of `CCOC(=O)c1c(C)[nH]c(=S)c(C#N)c1-c1ccc(Cl)cc1`
34.4

Provide one value: measured growth inhibition of CSc1nc(SC)c2cnn(C3OC(CO)C(O)C3O)c2n1 (centres undefined)
20.9

Provide one value: measured growth inhibition of CN(C)c1ccc(C(=O)C2N=NCC2c2ccccc2)cc1 (centres undefined)
13

Provide one value: measured growth inhibition of CC1CC(=O)CCC2(C)C(OC(C)(C)C)CCC12 (centres undefined)
-5.75

Provide one value: measured growth inhibition of `CCN(CC)CCCNc1ccc([N+](=O)[O-])c2nc3ccccc3c(N)c12`
15.8

Provide one value: measured growth inhibition of `COc1ccc(C(C)(C)c2ccccc2)cc1`
-13.4

Provide one value: measured growth inhibition of CC(O)C(NC(=O)c1cnc2ccccc2n1)C(=O)O (centres undefined)
17.8

Provide one value: measured growth inhibition of CC(C)(C)OC(=O)C(N)Cc1ccccc1 (centres undefined)
20.9

Provide one value: measured growth inhibition of `CCCCOc1ccc(Nc2c(C(=O)O)cnc3cc4c(cc23)OCO4)cc1`
-13.7

Provide one value: measured growth inhibition of `COc1cccc(C(N)=O)c1OC`
-10.9

Provide one value: measured growth inhibition of `O=C(O)c1ccc(SSc2ccc(C(=O)O)cn2)nc1`
-13.3

Provide one value: measured growth inhibition of `Cc1ccc(S(=O)(=O)NN=C2C(C)(C)C(=O)C2(C)C)cc1`
-32.9

Provide one value: measured growth inhibition of `CC1(C)CCCN1C(=O)Nc1ccc([N+](=O)[O-])cc1[N+](=O)[O-]`
5.4

----------
Test: NCI Yeast Anticancer Drug Screen. Data for the cln2 rad14 strain (AID 165);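 note: 0% = growth equal to vehicle treated cultures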
Details: S. cerevisiae cln2 rad14 strain, at 50.0 µM, active compounds read high
Experimental: Growth inhibition of yeast strains with defined genetic alterations is measured as a screen for potential anti-cancer activity. Selected strains with alterations in DNA damage repair or cell cycle control were exposed to compounds and growth inhibition was measured relative to vehicle treated controls. The strain used in this assay is cln2 rad14
This is part of a sample that, as a whole, favours compounds with a hit. Of some 79,000 tested, about 15% had one in any assay.
Listing of recorded growth inhibition by entry.
Response body: numeric value in %, unit text excluded.

CCN(CC)c1c(C)c(-c2ccccc2)oc(=O)c1Cl | 11.1
O=c1oc2c(Cl)cc(Cl)cc2cc1-c1nc2ccccc2[nH]1 | 9.65
NC1CCCCC1NCCNC1CCCCC1N (stereo unspecified) | -12.9

Provide one value: measured growth inhibition of `O=C(OCC(F)(F)C(F)(F)C(F)(F)C(F)(F)C(F)(F)C(F)F)OCC(F)(F)C(F)(F)C(F)(F)C(F)(F)C(F)(F)C(F)F`
-3.65

Provide one value: measured growth inhibition of `O=S(=O)(O)c1ccc(-c2nc3ccccc3[nH]2)cc1`
6

Provide one value: measured growth inhibition of `CN1C(=O)C(=O)C(c2ccccc2)(c2ccccc2)C1=O`
-53.2

Provide one value: measured growth inhibition of `Cc1ccc(C(C)C)c(OCC2=NCCN2C)c1`
0.4
